Listing: EC50 of selected molecules
target: Heat shock protein HSP90 (Homo sapiens, UniProt P07900+P08238); assay: Inhibition of HSP90 in human MCF7 cells assessed as depletion of cell surface HER2 protein level after 18 hrs by flow cytometry
Write down the numeric answer in µM and omit the unit.

Worked cases, EC50 given:
CO[C@@H]1[C@@H](OC(N)=O)[C@@H](O)[C@H](Oc2ccc3cc(NC(=O)c4cc5ccccc5[nH]4)c(=O)oc3c2C)OC1(C)C; 20
COc1ccc(C(=O)Nc2c(OC)c3ccc(O[C@@H]4OC(C)(C)[C@H](OC)[C@@H](OC(N)=O)[C@H]4O)c(C)c3oc2=O)cc1CC=C(C)C; 38
CO[C@@H]1[C@@H](OC(N)=O)[C@@H](O)[C@H](Oc2ccc3cc(NC(=O)c4ccc(O)c(CC=C(C)C)c4)c(=O)oc3c2C)OC1(C)C; 24

Now for another entry.
# get_value(readout= EC50, system= Heat shock protein HSP90 (Homo sapiens, UniProt P07900+P08238)) for COc1ccc(C(=O)Nc2c(OC)c3ccc(O[C@@H]4OC(C)(C)[C@H](OC)[C@@H](O)[C@H]4O)c(C)c3oc2=O)cc1CC=C(C)C 41
